Listing: hERG current change (%, negative = inhibition) at 10uM of selected compounds
study_target: human ether-à-go-go-related gene (hERG) potassium channel (human, UniProt Q12809);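 further: peak tail current of the secondary pulse compared with the same well before compound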
Sequence (Q12809 whole entry, looked up): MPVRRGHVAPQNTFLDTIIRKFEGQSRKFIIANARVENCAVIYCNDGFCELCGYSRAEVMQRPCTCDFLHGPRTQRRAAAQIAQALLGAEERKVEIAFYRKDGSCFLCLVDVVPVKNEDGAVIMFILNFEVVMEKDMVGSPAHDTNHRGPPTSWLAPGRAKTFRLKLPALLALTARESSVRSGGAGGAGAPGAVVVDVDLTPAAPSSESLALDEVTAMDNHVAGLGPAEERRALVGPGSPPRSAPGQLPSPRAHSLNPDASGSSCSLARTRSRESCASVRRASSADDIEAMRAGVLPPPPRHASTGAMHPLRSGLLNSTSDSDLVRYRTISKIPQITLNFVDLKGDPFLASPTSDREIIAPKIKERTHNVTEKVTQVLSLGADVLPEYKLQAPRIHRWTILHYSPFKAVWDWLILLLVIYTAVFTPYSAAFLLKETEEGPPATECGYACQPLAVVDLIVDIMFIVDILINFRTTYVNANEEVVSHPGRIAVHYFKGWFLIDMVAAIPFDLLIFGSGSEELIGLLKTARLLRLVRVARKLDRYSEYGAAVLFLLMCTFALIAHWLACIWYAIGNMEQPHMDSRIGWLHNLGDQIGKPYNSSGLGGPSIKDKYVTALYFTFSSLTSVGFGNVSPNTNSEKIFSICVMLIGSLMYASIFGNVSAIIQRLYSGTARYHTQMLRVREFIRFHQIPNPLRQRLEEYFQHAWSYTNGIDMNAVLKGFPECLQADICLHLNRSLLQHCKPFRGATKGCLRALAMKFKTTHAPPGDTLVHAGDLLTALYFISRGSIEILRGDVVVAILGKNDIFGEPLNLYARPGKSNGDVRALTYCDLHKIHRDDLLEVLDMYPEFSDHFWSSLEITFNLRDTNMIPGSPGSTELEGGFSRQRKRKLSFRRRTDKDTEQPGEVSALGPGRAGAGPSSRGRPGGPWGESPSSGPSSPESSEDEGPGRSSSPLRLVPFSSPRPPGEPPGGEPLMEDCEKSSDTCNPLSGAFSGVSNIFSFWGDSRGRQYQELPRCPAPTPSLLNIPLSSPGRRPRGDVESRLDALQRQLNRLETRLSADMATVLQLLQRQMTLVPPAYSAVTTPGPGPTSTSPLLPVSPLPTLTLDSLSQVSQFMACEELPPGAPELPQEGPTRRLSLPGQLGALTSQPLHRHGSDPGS
protocol_description: primary screen, population patch clamp on CHO cells stably expressing hERG; higher = less effect of the substance
The campaign covered roughly 310,000 compounds. About 14,000 (4.5%) showed an effect of 50% or more. Effects have a minus sign here. The full list was thinned out, with strong results kept by preference.
property_label: hERG current change (%, negative = inhibition) at 10uM

[
  {
    "compound": "O=C(Oc1cccc([N+](=O)[O-])c1)C1CCN(C(=O)c2ccc(F)cc2)CC1",
    "result": "-41%"
  },
  {
    "compound": "CCn1c(/N=C/c2ccccc2NS(=O)(=O)c2ccc(C)cc2)nc2ccccc21",
    "result": "-19.8%"
  },
  {
    "compound": "CCOc1ccc(C(=O)C2CCN(C(=O)c3ccc([N+](=O)[O-])cc3)CC2)cc1",
    "result": "-79.9%"
  },
  {
    "compound": "CC(Sc1nc(-c2ccccc2)cc(C(F)(F)F)n1)C(=O)NCc1ccco1 (stereo not drawn)",
    "result": "10.2%"
  },
  {
    "compound": "O=C(CCC(=O)c1ccc(F)cc1)OCc1nnc(-c2ccc([N+](=O)[O-])cc2)o1",
    "result": "-47%"
  },
  {
    "compound": "CCOC(=O)C1CCN(C(=O)c2ccc(N3CCOCC3)c([N+](=O)[O-])c2)CC1",
    "result": "-41.8%"
  },
  {
    "compound": "CCOC(=O)C1CCN(C(=O)c2cccc(C(=O)N3CCC(C(=O)OCC)CC3)c2)CC1",
    "result": "4.75%"
  },
  {
    "compound": "O=C(NCCc1ccccn1)c1nc(Cn2cc(Br)cn2)no1",
    "result": "11.4%"
  },
  {
    "compound": "Cc1ccc(-n2c(SCC(=O)NCc3ccco3)nnc2-c2cccnc2)cc1",
    "result": "-60.8%"
  }
]
